molecules and their reported inhibition diameter
Tested on: Pseudomonas aer. DSM 1117
Assay: In vitro antibacterial activity, plate test (inhibition diameter)
Type: cell-based, Pseudomonas aeruginosa
Details: 10 μg, Difco Nutrient Agar, 18 hrs at 37° C.

Example molecules with recorded inhibition diameter:
| molecule | inhibition diameter |
| --- | --- |
| CC(O)C1C(=O)N2C(C(=O)O)=C(SCNC(=O)CN)C(C)C12 (stereo not shown) | 18 mm |
| CC(O)C1C(=O)N2C(C(=O)O)=C(SCOCCN)C(C)C12 (stereo not shown) | 27 mm |
| CC(O)C1C(=O)N2C(C(=O)O)=C(SCOCCNC=N)C(C)C12 (stereo not shown) | 25 mm |

Continue with the molecule presented below.
Task item: Give me measured inhibition diameter, please, for this molecule: CC(=O)NCSC1=C(C(=O)O)N2C(=O)[C@H]([C@@H](C)O)[C@H]2[C@H]1C
Reply: 16 mm

====

Experiment: Stability in phosphate buffer (half-life of hydrolysis, UV method)
Assay type: physicochemical
Conditions: physiological phosphate buffer pH 7.4 and 37° C.; UV method
quantity.name: half-life

| compound | half-life |
| --- | --- |
| CC(=O)NCSC1=C(C(=O)O)N2C(=O)[C@H]([C@@H](C)O)[C@H]2[C@H]1C | 40 h |
| COCSC1=C(C(=O)O)N2C(=O)[C@H]([C@@H](C)O)[C@H]2[C@H]1C | 50 h |
| CC(O)C1C(=O)N2C(C(=O)O)=C(SCOC(C)(C)CN)C(C)C12 (stereo not drawn) | 50 h |
| CC(O)C1C(=O)N2C(C(=O)O)=C(SCOCCN)C(C)C12 (stereo not drawn) | 50 h |
| CC(O)C1C(=O)N2C(C(=O)O)=C(SCNC(=O)CN)C(C)C12 (stereo not drawn) | 16 h |

Continue with the compound presented below.
Task item: Give me measured half-life, please, for this compound: CC(O)C1C(=O)N2C(C(=O)O)=C(SCOCCNC=N)C(C)C12 (stereo not drawn)
Reply: 35 h

====

System: Escherichia coli DSM 1103
Assay: In vitro antibacterial activity, plate test (inhibition diameter)
Type: cell-based
Details: 10 μg, Difco Nutrient Agar, 18 hrs at 37° C.
quantity.name: inhibition diameter (mm)
The reply should contain only the number, in mm.

Example molecules with recorded inhibition diameter:
| molecule | inhibition diameter (mm) |
| --- | --- |
| CC(O)C1C(=O)N2C(C(=O)O)=C(SCOCCN)C(C)C12 (stereo not shown) [Ib] | 30 |
| CC(O)C1C(=O)N2C(C(=O)O)=C(SCNC(=O)CN)C(C)C12 (stereo not shown) [If] | 27 |
| CC(=O)NCSC1=C(C(=O)O)N2C(=O)[C@H]([C@@H](C)O)[C@H]2[C@H]1C [Ie] | 32 |

Continue with the molecule presented below.
Task item: Give me measured inhibition diameter, please, for this molecule: CC(O)C1C(=O)N2C(C(=O)O)=C(SCOCCNC=N)C(C)C12 (stereo not shown) [Ic]
Reply: 30

====

Tested on: Escherichia coli TEM 1
Test: In vitro antibacterial activity, plate test (inhibition diameter)
Type: cell-based
Conditions: 10 μg, Difco Nutrient Agar, 18 hrs at 37° C.
quantity.name: inhibition diameter
Note: state the figure and append the unit.

Example compounds with recorded inhibition diameter:
| compound | inhibition diameter |
| --- | --- |
| CC(=O)NCSC1=C(C(=O)O)N2C(=O)[C@H]([C@@H](C)O)[C@H]2[C@H]1C [Ie] | 34 mm |
| CC(O)C1C(=O)N2C(C(=O)O)=C(SCOCCN)C(C)C12 (stereo not shown) [Ib] | 33 mm |
| CC(O)C1C(=O)N2C(C(=O)O)=C(SCOCCNC=N)C(C)C12 (stereo not shown) [Ic] | 33 mm |

Continue with the compound presented below.
Task item: State inhibition diameter (Escherichia coli TEM 1) of CC(O)C1C(=O)N2C(C(=O)O)=C(SCNC(=O)CN)C(C)C12 (stereo not shown) [If] .
Reply: 33 mm
